The values you see were collected from paper PMC6222832.

Tested on: HIV-1 JR-CSF Env pseudotyped HIV-1
assayMethodText: microbe, parasite or virus in culture
Assay type: cell-based
setupConditions: Human immunodeficiency virus 1, U87/CD4/CCR5, 48 h, read-out: IC50 JR-CSF
measuredQuantity: pIC50
For clarity, pIC50 is expressed as the negative log10 of concentration in mol/L.

Answered examples (3):
Q: Consider the compound COc1cnc(-n2cnc(C)n2)c2[nH]cc(C(=O)C(=O)N3CCN(C(=O)c4ccccc4)CC3)c12 [BMS-626529, reference compound] and give its recorded pIC50.
Ans: 10.22

Q: // fetch pIC50 given entry COc1cnc(-n2cnc(C)n2)c2[nH]cc(C(=O)C(=O)N(C)C3CN(C(=O)c4ccccc4)C3)c12 [SC18]
Ans: 6.88

Q: Give pIC50 for the following compound: COc1cnc(-n2cnc(C)n2)c2[nH]cc(C(=O)C(=O)N3CC(CSC(=O)c4ccccc4)C3)c12 [SC16]
Ans: 7.54

***
Q: Please report the measured pIC50 for COc1cnc(-n2cnc(C)n2)c2[nH]cc(C(=O)C(=O)N3CC4CN(C(=O)c5ccccc5)CC4C3)c12 (centres unmarked) [SC11]
Ans: 9.22

Q: Look up and report measured pIC50 for this entry: COc1cnc(-n2cnc(C)n2)c2[nH]cc(C(=O)C(=O)N3CC4C=NN(c5nnnn5-c5ccccc5)C4C3)c12 (centres unmarked) [SC39]
Ans: 6.84

----------
Each entry below carries its reported kd.
measuredOn: B41 SOSIP.664 gp140 trimer (Human immunodeficiency virus type 1, UniProt B3UES2, A505C/E513R/I563P/INS515RR/K514R/T609C)
Format: binding, HIV-1
Please respond with the number in s⁻¹ and leave the unit unwritten.

Illustrative cases are given below, each with its answer.
Q: Specify kd for COc1cnc(-n2cnc(C)n2)c2[nH]cc(C(=O)C(=O)N3CC4CN(C(=O)c5ccccc5)CC4C3)c12 (stereo not shown) and stop.
Ans: 0.000287

Q: Note kd for the molecule shown: COc1cnc(-n2cnc(C)n2)c2[nH]cc(C(=O)C(=O)N3CC4C=NN(c5nnnn5-c5ccccc5)C4C3)c12 (stereo not shown)
Ans: 0.0381

Q: // Input: COc1cnc(-n2cnc(C)n2)c2[nH]cc(C(=O)C(=O)N(C)C3CN(C(=O)c4ccccc4)C3)c12 . Output its kd only.
Ans: 0.0248

Please examine the following record next.
Q: Look up kd of COc1cnc(-n2cnc(C)n2)c2[nH]cc(C(=O)C(=O)N3CC(CSC(=O)c4ccccc4)C3)c12 and report it.
Ans: 0.00598

----------
measuredOn: B41 SOSIP.664 gp140 trimer (Human immunodeficiency virus type 1, UniProt B3UES2, A505C/E513R/I563P/INS515RR/K514R/T609C)
Format: binding, HIV-1
As shown below, each of these compounds has a reported ka value.
Answer with a number only, understood to be in M⁻¹ s⁻¹.

Example cases with answers are listed next.
Q: For the compound COc1cnc(-n2cnc(C)n2)c2[nH]cc(C(=O)C(=O)N3CC4C=NN(c5nnnn5-c5ccccc5)C4C3)c12 (stereo not shown) , give its measured ka value.
Ans: 1390

Q: Please look at this compound and report its ka: COc1cnc(-n2cnc(C)n2)c2[nH]cc(C(=O)C(=O)N(C)C3CN(C(=O)c4ccccc4)C3)c12
Ans: 15900

Q: Please report ka for the following compound: COc1cnc(-n2cnc(C)n2)c2[nH]cc(C(=O)C(=O)N3CC(CSC(=O)c4ccccc4)C3)c12
Ans: 86200

New cases:
Q: Note down ka recorded for COc1cnc(-n2cnc(C)n2)c2[nH]cc(C(=O)C(=O)N3CC4CN(C(=O)c5ccccc5)CC4C3)c12 (stereo not shown)
Ans: 4330
